Where do these numbers come from? They come from ChEMBL document CHEMBL5260824.

target: Multidrug resistance-associated protein 1 (Homo sapiens); test: Inhibition of MRP1 in human NCI-H69AR cells incubated for 180 mins in presence of daunorubicin by flow cytometry analysis; format: cell-based
The following compounds are listed with their measured IC50 values.
The reply should contain only the number, in nM.

Known value: Multidrug resistance-associated protein 1 (Homo sapiens) IC50 of the compound CCOc1ccc(-n2cc(C#N)c3ncnc(N4CCN(Cc5ccccc5)CC4)c32)cc1 equals 859

----------
target: Multidrug resistance-associated protein 1 (Homo sapiens, UniProt P33527); test: Inhibition of MRP1 in human NCI-H69AR cells incubated for 180 mins in presence of daunorubicin by flow cytometry analysis; type: cell-based
Sequence (P33527 whole entry): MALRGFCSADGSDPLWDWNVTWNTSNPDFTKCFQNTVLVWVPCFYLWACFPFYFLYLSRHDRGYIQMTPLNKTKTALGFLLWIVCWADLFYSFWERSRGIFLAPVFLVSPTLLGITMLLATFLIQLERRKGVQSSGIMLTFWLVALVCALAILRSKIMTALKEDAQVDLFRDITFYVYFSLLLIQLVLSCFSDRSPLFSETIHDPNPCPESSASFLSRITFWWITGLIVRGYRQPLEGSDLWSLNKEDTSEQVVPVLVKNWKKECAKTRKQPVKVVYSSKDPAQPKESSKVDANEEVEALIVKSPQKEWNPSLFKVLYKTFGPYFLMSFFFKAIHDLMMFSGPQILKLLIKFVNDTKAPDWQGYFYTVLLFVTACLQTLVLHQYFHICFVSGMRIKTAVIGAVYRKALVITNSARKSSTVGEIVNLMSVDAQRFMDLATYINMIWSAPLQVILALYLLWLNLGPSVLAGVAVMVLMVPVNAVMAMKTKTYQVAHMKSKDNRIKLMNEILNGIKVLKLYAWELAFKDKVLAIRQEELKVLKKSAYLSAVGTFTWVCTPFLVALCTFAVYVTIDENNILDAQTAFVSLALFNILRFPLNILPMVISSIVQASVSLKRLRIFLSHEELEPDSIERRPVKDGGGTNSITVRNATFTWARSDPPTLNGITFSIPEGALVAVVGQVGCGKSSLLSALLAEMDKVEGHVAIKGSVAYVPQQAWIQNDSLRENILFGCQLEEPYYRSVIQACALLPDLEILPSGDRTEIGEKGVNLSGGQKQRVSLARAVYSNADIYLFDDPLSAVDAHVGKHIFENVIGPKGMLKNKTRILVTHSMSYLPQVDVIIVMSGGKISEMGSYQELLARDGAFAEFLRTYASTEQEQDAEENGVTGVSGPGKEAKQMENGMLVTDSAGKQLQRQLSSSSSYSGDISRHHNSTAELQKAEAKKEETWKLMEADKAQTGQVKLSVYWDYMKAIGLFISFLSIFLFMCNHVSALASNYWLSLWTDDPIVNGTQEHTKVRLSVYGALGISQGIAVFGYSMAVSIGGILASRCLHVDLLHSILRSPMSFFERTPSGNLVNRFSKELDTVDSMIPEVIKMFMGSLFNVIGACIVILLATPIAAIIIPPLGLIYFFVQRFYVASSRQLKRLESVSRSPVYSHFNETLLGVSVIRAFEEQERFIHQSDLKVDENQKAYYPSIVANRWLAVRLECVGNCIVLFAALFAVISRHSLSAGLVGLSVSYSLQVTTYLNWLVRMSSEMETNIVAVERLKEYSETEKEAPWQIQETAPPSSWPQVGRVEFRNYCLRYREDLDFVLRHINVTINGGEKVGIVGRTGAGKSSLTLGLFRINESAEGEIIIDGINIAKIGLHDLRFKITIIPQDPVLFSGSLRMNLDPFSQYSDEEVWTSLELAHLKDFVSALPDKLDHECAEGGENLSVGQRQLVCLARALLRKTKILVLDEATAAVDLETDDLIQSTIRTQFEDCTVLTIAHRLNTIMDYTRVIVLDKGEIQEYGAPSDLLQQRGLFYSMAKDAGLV
Response field label takes true (1) when IC50 is strictly below 500 nM and false (0) in all other cases.

Examples from the recorded data:
Compound: N#Cc1cn(-c2ccccc2)c2c(N3CCN(Cc4ccc5c(c4)OCO5)CC3)ncnc12
Experimental system: Multidrug resistance-associated protein 1 (Homo sapiens, UniProt P33527)
Discrete label: false (0)
//
Compound: CCCn1cc(C#N)c2ncnc(N3CCN(CCc4c[nH]c5ccccc45)CC3)c21
Experimental system: Multidrug resistance-associated protein 1 (Homo sapiens, UniProt P33527)
Discrete label: true (1)

Prompt: IC50 under 500 nM? Item: CCn1cc(C#N)c2ncnc(N3CCN(CCc4c[nH]c5ccccc45)CC3)c21
Completion: false (0)

Prompt: # check: IC50 < 500 nM for Cn1cc(C#N)c2ncnc(N3CCN(CCc4c[nH]c5ccccc45)CC3)c21
Completion: true (1)

Prompt: In the record for N#Cc1c2n(c3c(N4CCN(CCc5c[nH]c6ccccc56)CC4)ncnc13)CCCC2 , is IC50 less than 500 nM?
Completion: true (1)
